# System: HCC-2998 colon
# measurement-description: NCI-60 one-dose screen, 48 h (100 = growth as untreated, 0 = no growth, -100 = all killed)
# study-conditions: 10 µM unless noted
Compounds without any hit were thinned out: in the full panel of roughly 83,000, 20% have a hit. The source made the active and inactive calls. How the source made its calls: active means growth percent below 10; inactive means the rest.
endpoint: growth

Entry `CSc1nsc(N)n1` , HCC-2998 colon data, growth value: 106% (inactive)

Entry `CCOC(=O)/C(C#N)=C\c1c[nH]c2ccccc12` , HCC-2998 colon data, growth value: 108% (inactive)

Entry CSCCC(NC(=O)C(Cl)Cl)C(=O)O (centres undefined) , HCC-2998 colon data, growth value: 98.8% (inactive)

Entry `O=c1nc(Nc2cccc(Cl)c2)oc2cc(Cl)oc(=O)c12` , HCC-2998 colon data, growth value: 96.2% (inactive)

Entry `CN1CCN(C(=S)S)CC1` , HCC-2998 colon data, growth value: 107% (inactive)

Entry `CCOC(=O)c1cc(Cl)c(O)c(Cl)c1` , HCC-2998 colon data, growth value: 112% (inactive)

Entry `Cc1ccc(C)c2c1CCC2=O` , HCC-2998 colon data, growth value: 96.7% (inactive)

Entry `Clc1ncnc2nc[nH]c12` , HCC-2998 colon data, growth value: 89.6% (inactive)

Entry `O=C(Oc1ccccc1Cl)c1ccc(Cl)cc1Cl` , HCC-2998 colon data, growth value: 102% (inactive)

Entry `COc1cc(OC)c2cc(C(=O)c3ccc(C#N)cc3)c(=O)oc2c1` , HCC-2998 colon data, growth value: 107% (inactive)

Entry `CC(=O)N(CCCCCCN(C(C)=O)C(C)=O)C(C)=O` , HCC-2998 colon data, growth value: 114% [100 µM] (inactive)

Entry `Cc1ccc(C)c(CCO)c1` , HCC-2998 colon data, growth value: 103% (inactive)

Entry O=S(Cc1ccccc1)/C(=C/NC(=S)Nc1cc(Cl)ccc1Cl)c1ccccc1 (centres undefined) , HCC-2998 colon data, growth value: 103% (inactive)

Entry `Nc1ccc2c(c1)Cc1cc(N)c(N)cc1-2` , HCC-2998 colon data, growth value: 110% (inactive)

Every entry's value here was drawn from PubChem BioAssay (NCI).
